Measured DC50 values are reported for all entries that follow.
- systemUnderTest: RET(KD: 658-1114 G810R) (Homo sapiens, UniProt P07949, G810R)
- Construct: 658-1114; expressed in transfected cells; host or cells: 293T.165 (293T cells, generated in-house)
- Sequence (P07949 658-1114 G810R): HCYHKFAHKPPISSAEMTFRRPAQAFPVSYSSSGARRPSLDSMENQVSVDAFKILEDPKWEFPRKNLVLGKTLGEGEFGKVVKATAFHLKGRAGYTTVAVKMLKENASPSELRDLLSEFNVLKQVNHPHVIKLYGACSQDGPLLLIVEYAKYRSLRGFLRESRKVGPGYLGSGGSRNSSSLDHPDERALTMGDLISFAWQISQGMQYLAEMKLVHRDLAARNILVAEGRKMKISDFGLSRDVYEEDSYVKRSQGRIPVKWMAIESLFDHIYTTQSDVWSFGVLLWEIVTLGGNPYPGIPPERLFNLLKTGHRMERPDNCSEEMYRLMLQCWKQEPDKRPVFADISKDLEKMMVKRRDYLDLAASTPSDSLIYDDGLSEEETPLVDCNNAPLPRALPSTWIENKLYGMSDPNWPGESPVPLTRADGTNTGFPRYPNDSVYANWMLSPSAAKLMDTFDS
- assayNotes: HiBiT-Degradation, RET G810R degradation assay (Nano-Glo HiBiT Lytic), 293T.165 cells
- Type: cell-based
- testParameters: 6.0 hours, half-maximal degradation concentration, read-out: 293T.165 RET(KD: 658-1114 G810R) 6.0 hours (DC50)
quantityKind: DC50

compound	result
CCC1(C(=O)NC(C)C)CCN(c2ccc(-c3nc(-c4cnn(C5CCN(C(=O)CC6(O)CC7(CN(c8ccc(NC9CCC(=O)NC9=O)cc8F)C7)C6)CC5)c4)cn4ncc(C#N)c34)cn2)CC1 (centres unmarked) [Compound 97]	< 100 nM
CCC1(C(=O)NC2CCC2)CCN(c2ccc(-c3nc(-c4cnn([C@H]5C[C@H](CN6CCN(c7ccc(N[C@H]8CCC(=O)NC8=O)cc7F)CC6)C5)c4)cn4ncc(C#N)c34)cn2)CC1 [Compound 188]	< 50 nM
CCC1(C(=O)NC(C)C)CCN(c2ccc(-c3cc(-c4ccc(N5CCN(C(=O)CN6CCC(c7ccc(C8CCC(=O)NC8=O)cc7)CC6)CC5)cc4)cn4ncc(C#N)c34)cn2)CC1 (centres unmarked) [Compound 29]	< 1000 nM
CC(C)NC(=O)C1(C)CCN(c2ccc(-c3cc(-c4ccc(N5CCN(C(=O)CN6CCC(c7ccc(OC8CCC(=O)NC8=O)cc7)CC6)CC5)cc4)cn4ncc(C#N)c34)cn2)CC1 (centres unmarked) [Compound 48]	< 100 nM
COc1ccc(CN2[C@@H]3COC[C@H]2CN(c2ccc(-c4nc(-c5cnn([C@H]6CC[C@@H](N7CCN(c8cc9c(cc8F)c(N8CCC(=O)NC8=O)nn9C)CC7)CC6)c5)cn5ncc(C#N)c45)cn2)C3)cn1 (single isomer, unassigned) [Compound 152]	< 50 nM

* * *

- systemUnderTest: RET(KD: 658-1114 G810R) (Homo sapiens, UniProt P07949, G810R)
- Construct: 658-1114; expressed in transfected cells; host or cells: 293T.165 (293T cells, generated in-house)
- assayNotes: HiBiT-Degradation, RET G810R degradation assay (Nano-Glo HiBiT Lytic), 293T.165 cells
- Format: cell-based
quantityKind: 293T.165 RET(KD: 658-1114 G810R) 6.0 hours (IP) [nM]

compound	result
COc1ccc(CN2C3COCC2CN(c2ccc(-c4nc(-c5cnn([C@H]6CC[C@H](N7CCN(c8cc(F)c(NC9CCC(=O)NC9=O)cc8F)CC7)CC6)c5)cn5ncc(C#N)c45)cn2)C3)cn1 (relative stereo) [Compound 162]	++++ (<50 nM = ++++)
CCC1(C(=O)NC(C)C)CCN(c2ccc(-c3nc(-c4cnn([C@H]5CC[C@H](N6CCC(c7ccc(NC8CCC(=O)NC8=O)cc7F)CC6)CC5)c4)cn4ncc(C#N)c34)cn2)CC1 (single isomer, unassigned) [Compound 122]	++++ (<50 nM = ++++)

* * *

- systemUnderTest: RET(KD: 658-1114 G810R) (Homo sapiens, UniProt P07949, G810R)
- Construct: 658-1114; expressed in transfected cells; host or cells: 293T.165 (293T cells, generated in-house)
- Sequence (P07949 658-1114 G810R): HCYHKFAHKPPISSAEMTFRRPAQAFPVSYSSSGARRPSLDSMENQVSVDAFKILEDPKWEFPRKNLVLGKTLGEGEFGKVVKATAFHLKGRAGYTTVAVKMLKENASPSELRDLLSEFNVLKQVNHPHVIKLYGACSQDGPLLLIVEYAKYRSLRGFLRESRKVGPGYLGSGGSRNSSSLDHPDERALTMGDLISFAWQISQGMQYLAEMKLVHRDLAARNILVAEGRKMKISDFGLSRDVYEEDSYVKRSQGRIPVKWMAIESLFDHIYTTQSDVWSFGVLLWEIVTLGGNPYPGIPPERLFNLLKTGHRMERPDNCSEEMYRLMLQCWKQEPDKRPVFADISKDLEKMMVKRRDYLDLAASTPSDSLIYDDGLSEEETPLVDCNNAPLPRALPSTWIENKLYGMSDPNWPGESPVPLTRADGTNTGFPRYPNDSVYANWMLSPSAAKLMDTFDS
- assayNotes: HiBiT-Degradation, RET G810R degradation assay (Nano-Glo HiBiT Lytic), 293T.165 cells
- Type: cell-based
- testParameters: HiBiT-Degradation, 6.0 hours, read-out: 293T.165 RET(KD: 658-1114 G810R) 6.0 hours (DC50)

compound	DC50
CCC1(C(=O)NC(C)C)CCN(c2ccc(-c3cc(-c4cnn(C5CCN(C(=O)CC6(O)CCN(c7ccc(NC8CCC(=O)NC8=O)cc7F)CC6)CC5)c4)cn4ncc(C#N)c34)cn2)CC1 (stereo not shown) [Compound 4]	< 50 nM
C[C@H](c1ccccn1)N1CCN(c2ccc(-c3nc(-c4cnn(C5CCN(C(=O)CC6(O)CCN(c7ccc(NC8CCC(=O)NC8=O)cc7F)CC6)CC5)c4)cn4ncc(C#N)c34)cn2)CC1 (stereo partly shown) [Compound 1]	< 50 nM
N#Cc1cnn2cc(-c3cnn(C4CCN(C(=O)CN5CCC(c6ccc(NC7CCC(=O)NC7=O)cc6F)CC5)CC4)c3)cc(-c3ccc(N4CCN(C(=O)Cc5ccc(F)cn5)CC4)nc3)c12 (stereo not shown) [Compound 5]	< 50 nM
N#Cc1cnn2cc(-c3cnn(C4CCN(CCN5CCC(c6ccc(NC7CCC(=O)NC7=O)cc6F)CC5)CC4)c3)cc(-c3ccc(N4CCN(Cc5ccccn5)CC4)nc3)c12 (stereo not shown) [Compound 12]	< 100 nM
N#Cc1cnn2cc(-c3ccc(N4CCN(C(=O)CN5CCC(c6ccc(NC7CCC(=O)NC7=O)cc6)CC5)CC4)cc3)cc(-c3ccc(N4C[C@H]5CC[C@@H](C4)O5)nc3)c12 (stereo partly shown) [Compound 19]	< 100 nM
CC(C)NC(=O)C1(C)CCN(c2ccc(-c3cc(-c4ccc(N5CCN(C(=O)CC6(O)CCN(c7ccc(NC8CCC(=O)NC8=O)cc7F)CC6)CC5)cc4)cn4ncc(C#N)c34)cn2)CC1 (stereo not shown) [Compound 32]	< 50 nM
N#Cc1cnn2cc(-c3cnn(C4CCN(C(=O)CC5(O)CCN(c6ccc(NC7CCC(=O)NC7=O)cc6F)CC5)CC4)c3)nc(-c3ccc(N4CCC(c5ncccn5)CC4)nc3)c12 (stereo not shown) [Compound 36]	< 50 nM
N#Cc1cnn2cc(-c3ccc(N4CCN(C(=O)CC5(O)CCN(c6ccc(NC7CCC(=O)NC7=O)cc6F)CC5)CC4)cc3)cc(-c3ccc(N4CCN(C(=O)Cc5ccc(F)cn5)CC4)nc3)c12 (stereo not shown) [Compound 26]	< 50 nM
CCC1(C(=O)NC(C)C)CCN(c2ccc(-c3cc(-c4cnn(C5CCN(C(=O)CN6CCC(c7ccc(NC8CCC(=O)NC8=O)cc7F)CC6)CC5)c4)cn4ncc(C#N)c34)cc2)CC1 (stereo not shown) [Compound 58]	< 50 nM
N#Cc1cnn2cc(-c3cnn([C@H]4CC[C@H](CCN5CCC(c6ccc(NC7CCC(=O)NC7=O)cc6F)CC5)CC4)c3)cc(-c3ccc(N4CCN(C(=O)Cc5ccc(F)cn5)CC4)nc3)c12 (stereo partly shown) [Compound 57]	< 50 nM

* * *

Measured DC50 values are reported for all entries that follow.
- systemUnderTest: RET(KD: 658-1114 G810R) (Homo sapiens, UniProt P07949, G810R)
- Construct: 658-1114; expressed in transfected cells; host or cells: 293T.165 (293T cells, generated in-house)
- assayNotes: HiBiT-Degradation, RET G810R degradation assay (Nano-Glo HiBiT Lytic), 293T.165 cells
- Format: cell-based
- testParameters: 6.0 hours, half-maximal degradation concentration, read-out: 293T.165 RET(KD: 658-1114 G810R) 6.0 hours (DC50)
- Protocol: Dulbecco's modified Eagle medium (DMEM) no-phenol red media and fetal bovine serum (FBS) were purchased from Gibco (Grand Island, NY, USA). […] RET wild-type (WT) and G810R degradation were assessed using the Nano-Glo® HiBiT Lytic assay (Promega, Medison, WI, USA). […] Luminescence signal was measured using an EnVision™ Multimode plate reader (Perkin Elmer, Santa Clara, CA, USA). […]
quantityKind: DC50

compound	result
N#Cc1cnn2cc(-c3cnn(C4CCN(C(=O)NC5CCN(c6ccc(NC7CCC(=O)NC7=O)cc6F)CC5)CC4)c3)cc(-c3ccc(N4CCN(Cc5ccccn5)CC4)nc3)c12 (stereo not drawn)	< 100 nM
N#Cc1cnn2cc(-c3ccc(N4CCN(C(=O)CN5CCC(c6ccc(NC7CCC(=O)NC7=O)cc6F)CC5)CC4)cc3)nc(-c3ccc(N4CC5CC(C4)N5Cc4ccccc4)nc3)c12 (stereo not drawn)	< 100 nM
CCC1(C(=O)Nc2ccccc2)CCN(c2ccc(-c3nc(-c4cnn(C5CCN(C(=O)CC6(O)CCN(c7ccc(NC8CCC(=O)NC8=O)cc7Cl)CC6)CC5)c4)cn4ncc(C#N)c34)cn2)CC1 (stereo not drawn)	< 100 nM
N#Cc1cnn2cc(-c3cnn([C@H]4CC[C@H](N5CCN(c6c(F)cc(NC7CCC(=O)NC7=O)cc6F)CC5)CC4)c3)nc(-c3ccc(N4CC[C@H](OCc5ccccn5)C4)nc3)c12 (mixture of isomers)	< 50 nM
CCC1(C(=O)NC2CCC2)CCN(c2ccc(-c3nc(-c4cnn([C@H]5CC[C@H](N6CCC(c7ccc8c(c7)CCN8[C@@H]7CCC(=O)NC7=O)CC6)CC5)c4)cn4ncc(C#N)c34)cn2)CC1 (single isomer, unassigned)	< 50 nM
CCOc1ccc(CN2[C@@H]3COC[C@H]2CN(c2ccc(-c4nc(-c5cnn([C@H]6CC[C@H](N7CCN(c8c(F)cc(NC9CCC(=O)NC9=O)cc8F)CC7)CC6)c5)cn5ncc(C#N)c45)cn2)C3)cn1 (mixture of isomers)	< 100 nM
COCC1(Cc2ccccn2)CCN(c2ccc(-c3nc(-c4cnn(C5CCN(C(=O)CC6(O)CCN(c7ccc(NC8CCC(=O)NC8=O)cc7F)CC6)CC5)c4)cn4ncc(C#N)c34)cn2)CC1 (stereo not drawn)	< 50 nM
N#Cc1cnn2cc(-c3cnn(C4CCN(C(=O)CN5CCC(c6ccc(NC7CCC(=O)NC7=O)cc6F)CC5)CC4)c3)cc(-c3ccc(N4CC5CC(C4)N5Cc4cccnc4)nc3)c12 (stereo not drawn)	< 50 nM
CC(C)NC(=O)C1(C)CCN(c2ccc(-c3cc(-c4cnn(C5CCC6(CC5)CN(C(=O)CN5CCC(c7ccc(NC8CCC(=O)NC8=O)cc7)CC5)C6)c4)cn4ncc(C#N)c34)cn2)CC1 (stereo not drawn)	< 100 nM
